Attribution: paper PMC8538057

- test-name: In vivo brain distribution study after i.n. and i.p. administration to mice
- Parameters: species or system Male ddY mice
- setup-conditions: male, ddY, mouse, in vivo, inhaled or intranasal, 1 mg
Ends that are not written are not given here.
readout-kind: tissue level at time at 5 min (ng/g)
Give the value in ng/g but do not write ng/g after it.

IN: What tissue level at time at 5 min value was documented for this sequence, SKGQAYRMI [ANA-TA9] ?
OUT: 712

---

- test-name: In vitro stability in the cerebrospinal fluid
- Format: in vitro ADME
- setup-conditions: cerebrospinal fluid (CSF); rat CSF, 5 μL ANA-TA9 PBS solution added to 45 μL CSF, 37 °C, 2 h, LC/MS without treatment, three experiments; read-out: CSF concentration remaining at 2 h after the start of the incubation
Ends that are not written are not given here.
readout-kind: remaining at 2 h (%)
// units = %; emit number, no label

IN: Reported remaining at 2 h, sequence SKGQAYRMI [ANA-TA9] : ____
OUT: 46

---

- test-name: Disposition and nasal absorption of ANA-TA9 in rats (plasma pharmacokinetics after i.v. bolus, i.v. infusion and i.n. administration)
- Format: in vivo, Male Wistar/ST rats
- setup-conditions: male, Wistar/ST, rat, in vivo, iv, 3 mg/animal
Ends that are not written are not given here.
readout-kind: AUC

IN: Reported AUC, sequence SKGQAYRMI [ANA-TA9] : ____
OUT: 215 ng·h/mL

---

- test-name: Disposition and nasal absorption of ANA-TA9 in rats (plasma pharmacokinetics after i.v. bolus, i.v. infusion and i.n. administration)
- Type: in vivo, Male Wistar/ST rats
- setup-conditions: male, Wistar/ST, rat, in vivo, iv, 2 mg
Ends that are not written are not given here.
readout-kind: half-life

IN: Give the measured half-life of SKGQAYRMI [ANA-TA9] .
OUT: < 1 min

---

- test-name: Disposition and nasal absorption of ANA-TA9 in rats (plasma pharmacokinetics after i.v. bolus, i.v. infusion and i.n. administration)
- Type: in vivo, Male Wistar/ST rats
- setup-conditions: male, Wistar/ST, rat, in vivo, iv, 2 mg
Ends that are not written are not given here.
readout-kind: level at 1 min (µg/mL)
API: value field is a number in µg/mL; no unit string.

IN: Which value of level at 1 min has been reported for SKGQAYRMI [ANA-TA9] in the records?
OUT: 0.111

---

- test-name: In vivo brain distribution study after i.n. and i.p. administration to mice
- Parameters: species or system Male ddY mice
- setup-conditions: male, ddY, plasma, inhaled or intranasal, 1 mg; mouse, i.n.; read-out: time of peak plasma concentration, i.n. (converted)
Ends that are not written are not given here.
readout-kind: Tmax (min)
Write the answer as a number in min, unit excluded.

IN: Tmax for SKGQAYRMI [ANA-TA9] ?
OUT: 5

---

- test-name: Disposition and nasal absorption of ANA-TA9 in rats (plasma pharmacokinetics after i.v. bolus, i.v. infusion and i.n. administration)
- Assay type: in vivo, Male Wistar/ST rats
- setup-conditions: male, Wistar/ST, plasma, inhaled or intranasal; rat, i.n. 2 mg, dose-normalized i.n. AUC divided by normalized AUC after i.v. infusion, mean ± S.E. of three experiments; read-out: F (bioavailability), i.n.
Ends that are not written are not given here.
readout-kind: bioavailability (%)
Give your result in % as a bare value.

IN: Look up bioavailability: SKGQAYRMI [ANA-TA9]
OUT: 36

---

- test-name: in vivo
- Design: species or system male Wistar/ST rats
- setup-conditions: male, Wistar/ST, rat, iv, 2 mg, plasma concentration 10 min after i.v. administration
Ends that are not written are not given here.
readout-kind: level at 10 min (ng/mL)
Answer format: numeric, ng/mL implied, no suffix.

IN: Look up level at 10 min: SKGQAYRMI [ANA-TA9]
OUT: 10
